Biological target: UniProt:Q07869
Sequence (Q07869 167-468 limits assumed): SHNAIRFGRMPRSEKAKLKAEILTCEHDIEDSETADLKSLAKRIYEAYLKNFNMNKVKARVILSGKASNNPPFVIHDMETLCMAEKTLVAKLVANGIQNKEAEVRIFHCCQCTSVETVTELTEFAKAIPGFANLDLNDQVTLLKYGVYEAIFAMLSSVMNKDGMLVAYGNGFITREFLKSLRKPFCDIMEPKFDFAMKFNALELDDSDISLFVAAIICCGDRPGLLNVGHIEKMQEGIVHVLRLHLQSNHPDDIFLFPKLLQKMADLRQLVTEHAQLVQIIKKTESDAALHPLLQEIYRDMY
Assay: Luciferase transcriptional reporter gene assay, BHK21 cells transfected with pFA-PPARα-LBD
Type: cell-based
Design: PPARα (aa 167 to 469)
Settings: 24 hours incubation
observation-type: EC50 (µM)

{"compound": "CCOC(Cc1ccc(OCCCc2nc(-c3ccc(C(C)(C)C)cc3)sc2C)cc1C)C(=O)O (racemic) [Example 102]", "system-tested": "UniProt:Q07869", "EC50, µM": 0.215}
{"compound": "CCOC(Cc1ccc(OCCCc2csc(-c3ccc(C(C)C)cc3)n2)c(F)c1)C(=O)O (racemic) [Example 43]", "system-tested": "UniProt:Q07869", "EC50, µM": 2.11}
{"compound": "CCO[C@@H](Cc1ccc(OCc2csc(-c3ccc(Cl)cc3)n2)cc1C)C(=O)O [Example 20]", "system-tested": "UniProt:Q07869", "EC50, µM": 0.027}
{"compound": "CCOC(Cc1ccc(OCc2csc(-c3ccc(C(C)C)cc3)n2)c(C)c1)C(=O)O (racemic) [Example 5]", "system-tested": "UniProt:Q07869", "EC50, µM": 0.4}
{"compound": "CCO[C@@H](Cc1ccc(OCc2csc(-c3cccc(Cl)c3)n2)cc1C)C(=O)O [Example 19]", "system-tested": "UniProt:Q07869", "EC50, µM": 0.071}
{"compound": "CCOC(Cc1ccc(OCCc2csc(-c3ccc(C(F)(F)F)cc3)n2)c(F)c1)C(=O)O (racemic) [Example 25]", "system-tested": "UniProt:Q07869", "EC50, µM": 0.116}

1 = CCOC(Cc1ccc(OCc2csc(-c3ccc(Cl)cc3)n2)cc1C)C(=O)O (racemic) [Example 14]
2 = CCOC(Cc1ccc(OCCc2nc(-c3ccc(OC(F)(F)F)cc3)sc2C)c(C)c1)C(=O)O (racemic) [Example 60]
Prompt: Lower EC50: 1 or 2 ? Write down the label of the entry you select.
Response: 1
